# System: Bhas 42 cell line
# Experimental Details: Bhas 42 cell transformation assay (carcinogenesis)
# Format: cell-based

# Molecule, Carcinogen (C)
data = [
    ("CNC(=O)c1cc(Cl)ccn1.Cl", "No"),
    ("O=[PH](O)O", "No"),
    ("O=C(OCCc1ccccc1)c1ccccc1 [Phenethyl benzoate]", "No"),
    ("CCCCC(CC)CN (stereo not shown)", "Yes"),
]

* * *

# Tested on: zebrafish embryos
# Cond: in vivo

# Compound, Reprotoxicity (R) Teratogen
rows = [
    ("CCCCC(CC)CN (stereo not shown)", "No"),
    ("CC1=CC(=O)[C@@H](C(C)C)CC1", "No"),
    ("CNC(=O)c1cc(Cl)ccn1.Cl", "No"),
    ("O=C(OCCc1ccccc1)c1ccccc1 [Phenethyl benzoate]", "No"),
]

* * *

# Test system: androgen and oestrogen receptors
# Experimental Details: ED assays of androgen and oestrogen receptors (overall experimental ED result)
# Format: cell-based
Readout Name: Experimental result

Consider the worked cases shown below.
# Molecule, Experimental result
records = [
    ("O=[PH](O)O", "No"),
    ("O=C(OCCc1ccccc1)c1ccccc1 [Phenethyl benzoate]", "No"),
    ("c1ccc2c(c1)ccc1ccccc12", "Yes"),
    ("CC(C)[C@H]1CC[C@H](C)C[C@@H]1O", "No"),
]

For CNC(=O)c1cc(Cl)ccn1.Cl the molecule record lists Experimental result as No

Sample CCCCCC1C(=O)CCC1CC(=O)OC (stereo not shown) [Methyl dihydrojasmonate] ; Experimental result observed: Yes

Value of measured Experimental result for the entry Oc1cc(Cl)cc(Cl)c1Cl : Yes

Record CCCCC(CC)CN (stereo not shown) , field Experimental result: Yes

For reference, reported Experimental result for Cc1cc(N)ccc1N.O=S(=O)(O)O [2,5-Diaminotoluene sulphate] stands at No

Reported Experimental result for C=Cc1ccccn1 was Yes

* * *

# Tested on: androgen and oestrogen receptors
# Experimental Details: ED assays of androgen and oestrogen receptors (overall experimental ED result)
# Assay type: cell-based
# Cond: endocrine disruptor yes/no

# Molecule, Study Target, Experimental result
rows = [
    ("O=C(O)C(F)(F)C(F)(F)C(F)(F)C(F)(F)F", "androgen and oestrogen receptors", "No"),
    ("C#CCBr [Propargyl bromide]", "androgen and oestrogen receptors", "Yes"),
    ("Clc1cc(Cl)c(Cl)c(Cl)c1", "androgen and oestrogen receptors", "No"),
    ("CCN(CC)c1ccc(N=Nc2c(Cl)cc([N+](=O)[O-])cc2[N+](=O)[O-])c(NC(C)=O)c1", "androgen and oestrogen receptors", "Yes"),
]

* * *

# Experimental Details: logKow as a measure of bioaccumulation, extracted from public databases
# Type: physicochemical
# Cond: yes/no by logKow, REACH cut off 4,5
Readout Name: Bioaccumulation

Consider the following illustrative entries.
# Compound, Bioaccumulation
rows = [
    ("ClC1C(Cl)C(Cl)C(Cl)C(Cl)C1Cl (stereo not drawn)", "No"),
    ("Clc1cc(Cl)c(Cl)c(Cl)c1Cl", "Yes"),
    ("Oc1cc(Cl)cc(Cl)c1Cl", "No"),
    ("C=C(C)C(=O)O", "No"),
    ("O=[N+]([O-])c1ccccc1", "No"),
]

Reported Bioaccumulation for COC(=O)C=Cc1ccccc1 [Methyl cinnamate] was No

Record C=CC(=O)NC(C)C [N-Isopropylacrylamide] . Reported Bioaccumulation: No

get_value(item= Clc1cc(Cl)c(Cl)c(Cl)c1 , readout=Bioaccumulation) returns Yes

Recorded Bioaccumulation (compound CCNC(N)=O ): No
